Tested system: GSK3β (Homo sapiens, UniProt P49841)
Sequence (P49841 whole entry, species assumed): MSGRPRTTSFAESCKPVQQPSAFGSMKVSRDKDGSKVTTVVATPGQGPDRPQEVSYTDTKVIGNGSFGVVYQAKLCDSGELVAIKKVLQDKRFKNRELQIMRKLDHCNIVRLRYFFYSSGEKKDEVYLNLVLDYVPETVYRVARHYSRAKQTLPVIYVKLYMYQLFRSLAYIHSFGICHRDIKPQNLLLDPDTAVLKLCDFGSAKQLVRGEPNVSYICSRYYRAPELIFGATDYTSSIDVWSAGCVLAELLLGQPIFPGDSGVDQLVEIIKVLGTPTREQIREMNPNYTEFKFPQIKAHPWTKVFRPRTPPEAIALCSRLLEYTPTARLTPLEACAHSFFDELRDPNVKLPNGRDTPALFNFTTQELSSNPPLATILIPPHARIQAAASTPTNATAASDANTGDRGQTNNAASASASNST
Experimental protocol: GSK3β kinase assay (Caliper LabChip, fluoresceinated peptide substrate)
Type: biochemical
Condition context: first value of the cell; 250 pM enzyme, 20 uM ATP, 20 hours at room temperature; read-out: GSK3β/α (nM): GSK3β IC50
Test readout: IC50
Answer format: value, then unit.

Example cases with answers are listed next.
Molecule	IC50
O=C(Nc1cncc(F)c1-c1ccccc1)c1ccnc(Nc2ccc(C(F)(F)F)cn2)c1	3 nM
O=C(Nc1cncc(-c2ccccc2F)c1)c1ccnc(Nc2ccc3ccccc3n2)c1	23 nM
N#Cc1cccc(Nc2cc(C(=O)Nc3cncc(-c4ccc(C#N)c(F)c4)c3)ccn2)n1	1.2 nM
N#CC1(c2ccc(Nc3cc(C(=O)Nc4cncc(-c5ccccc5F)c4)ccn3)nc2)CC1	3.2 nM
CCc1cccc(Nc2cc(C(=O)Nc3cncc(-c4ccccc4F)c3)ccn2)n1	3.5 nM

Now for a further molecule.
Value of measured IC50 for the entry CC(O)(c1cnncc1NC(=O)c1ccnc(Nc2ccc(C(F)(F)F)cn2)c1)C1CC1 (centres unmarked) : 1.2 nM
